Origin of measurements: the supplement of paper PMC9170038

Could you please report measured apparent KD of MS2 coat protein for the items listed next?
# Test system: MS2 coat protein
# procedure_summary: apparent KD of MS2 coat protein; higher = weaker reporter binding
# condition_parameters: Eterna round: R107; input ligand: theophylline 2 mM
Give the number; nM is assumed, so skip it.

API: value(readout= apparent KD of MS2 coat protein, system= MS2 coat protein, query= CGUGCUAGGGCGGCCGCCACUGUGGCUACGGUACAUGAGGAUCACCCAUGUUUGUGGUUGAUCUACAGGACCGGGCCCUGGCACG [Radiaerdi] )
756

API: value(readout= apparent KD of MS2 coat protein, system= MS2 coat protein, query= CUCAUCCACGCGGCCGCCACUAUAUUGUGGUGUGAGUGUGACGUAUUACAUGAGGAUCACCCAUGUAGGACCGGGCGUGGAUGAG [#06 Exclusion Tryptophan B] )
50.2

API: value(readout= apparent KD of MS2 coat protein, system= MS2 coat protein, query= UGUAUGUGAUCUGAUACCAGUCCAACUGGUAAAGCAUGAGGAUCACCCAUGCAAAAUUGGGACCCUUGGCAGCAGAUCGCAUACU )
28.1

API: value(readout= apparent KD of MS2 coat protein, system= MS2 coat protein, query= UGAUGGAACGGAAGGAGCGUGUAAGAACAAGAACAUGAGGAUCACCCAUGUAUUAAUUUAACACAGGUAGGUCGCCGAGUUAUUG [11.F] )
28.6

API: value(readout= apparent KD of MS2 coat protein, system= MS2 coat protein, query= GCCUAGCAGCGAAGGAGCGAGGUAACUUAAUAAAUAAAUACAAGAGGAUCACCCUUGUUUCCUCAGGUAGGUCGCGCUGCUAGGC [SSAB Alternative Aptamer #2 NP+V+V2] )
20.9

API: value(readout= apparent KD of MS2 coat protein, system= MS2 coat protein, query= GAGUAGUAGACGGCCGCCACUAAACAUGAGGAUCACCCAUGUAGUGAUCCGUUACCUAGCGUAGAUAGGACCGGGUCAGAUAGUA [Exclusion Tryptophan B GF 14] )
25.9

API: value(readout= apparent KD of MS2 coat protein, system= MS2 coat protein, query= UCGUUUGAGGCGGCCGCCACUGGUCUCAUGGUCAACAUGAGGAUCACCCAUGUAUCUUUGCCAAGCAGGACCGGGCCUCGAGCGA [#20 Exclusion Tryptophan B] )
29.1

API: value(readout= apparent KD of MS2 coat protein, system= MS2 coat protein, query= GCCAUCGGCGGAAGCCGAUGGGAUACAGAAGGAGCGUAGGAAACUACAGGUAGGUCGCUGGACAUGAGGAUCACCCAUGUGAUAG [SSAA #11] )
31.6

API: value(readout= apparent KD of MS2 coat protein, system= MS2 coat protein, query= UUAAUCUUGGAUGAAAACAUUUAAGCAGAAGGAGCGUGAUAAAACACAGGUAGGUCGCUGAAGGGAACAUGAGGAUCACCCAUGU [AstrosSSArgA#15] )
31.7

API: value(readout= apparent KD of MS2 coat protein, system= MS2 coat protein, query= GGGCCCGGGCCCGCGCGGGCCCGGGCCCAACGAGGACCGGUACGGCCGCCACUCGAACGAGUGGGUACAUGAGGAUCACCCAUGU [Baa] )
48.6

API: value(readout= apparent KD of MS2 coat protein, system= MS2 coat protein, query= CUCCCGUGAGCGGCCGCCACUGGAGGCCUCGCGCGACAUGAGGAUCACCCAUGUUGGCCCGGCCUCAGGACCGGGUUCGCGCGAG [Same State - Tryptophan B Attempt #5 (HarryS)] )
9.89

API: value(readout= apparent KD of MS2 coat protein, system= MS2 coat protein, query= GGGCUUGUGGUGCGGCGUGUUCCGCUCCGUCGAGGACCGGUACGGCCGCCACUCGACAUGAGGAUCACCCAUGUGCGAGCGCGCG [#1 Exclusion - Tryptophan A Attempt #7 (HarryS)] )
15.4
